test system: MET; test: MET biochemical kinase assay; design: species or system human; concentration or dose not given beside the values
Quantity name: Met Kinase % Inhibition (%)
Output spec: scalar in %, unitless text.

For orientation, consider the following solved cases.
Mol: CNS(=O)(=O)c1ccc2c(c1)C(=Cc1cccc(F)c1O)C(=O)N2
Unit spec: %
Met Kinase % Inhibition: 49.8
//
Mol: COc1ccc(C=C2C(=O)Nc3ccc(Br)c(C)c32)c2ccccc12
Unit spec: %
Met Kinase % Inhibition: 13.5
//
Mol: CN(C)c1ccc(C=C2C(=O)Nc3ccc(S(=O)(=O)Nc4ccc(C(F)(F)F)cc4)cc32)c2ccccc12
Unit spec: %
Met Kinase % Inhibition: 55.4

Recorded Met Kinase % Inhibition (molecule CNS(=O)(=O)c1ccc2c(c1)C(=Cc1ccccn1)C(=O)N2 ): 25.5

Recorded Met Kinase % Inhibition (molecule CNS(=O)(=O)c1ccc2c(c1)C(=Cc1c(Br)ccc(OC)c1O)C(=O)N2 ): 72.9

---

Biological target: EGFR (Homo sapiens, UniProt P00533)
Construct: Add 7 ug A431 cell lysate per well (EGFR source); endogenous in cells; host or cells: A431
Sequence (P00533 25-1210): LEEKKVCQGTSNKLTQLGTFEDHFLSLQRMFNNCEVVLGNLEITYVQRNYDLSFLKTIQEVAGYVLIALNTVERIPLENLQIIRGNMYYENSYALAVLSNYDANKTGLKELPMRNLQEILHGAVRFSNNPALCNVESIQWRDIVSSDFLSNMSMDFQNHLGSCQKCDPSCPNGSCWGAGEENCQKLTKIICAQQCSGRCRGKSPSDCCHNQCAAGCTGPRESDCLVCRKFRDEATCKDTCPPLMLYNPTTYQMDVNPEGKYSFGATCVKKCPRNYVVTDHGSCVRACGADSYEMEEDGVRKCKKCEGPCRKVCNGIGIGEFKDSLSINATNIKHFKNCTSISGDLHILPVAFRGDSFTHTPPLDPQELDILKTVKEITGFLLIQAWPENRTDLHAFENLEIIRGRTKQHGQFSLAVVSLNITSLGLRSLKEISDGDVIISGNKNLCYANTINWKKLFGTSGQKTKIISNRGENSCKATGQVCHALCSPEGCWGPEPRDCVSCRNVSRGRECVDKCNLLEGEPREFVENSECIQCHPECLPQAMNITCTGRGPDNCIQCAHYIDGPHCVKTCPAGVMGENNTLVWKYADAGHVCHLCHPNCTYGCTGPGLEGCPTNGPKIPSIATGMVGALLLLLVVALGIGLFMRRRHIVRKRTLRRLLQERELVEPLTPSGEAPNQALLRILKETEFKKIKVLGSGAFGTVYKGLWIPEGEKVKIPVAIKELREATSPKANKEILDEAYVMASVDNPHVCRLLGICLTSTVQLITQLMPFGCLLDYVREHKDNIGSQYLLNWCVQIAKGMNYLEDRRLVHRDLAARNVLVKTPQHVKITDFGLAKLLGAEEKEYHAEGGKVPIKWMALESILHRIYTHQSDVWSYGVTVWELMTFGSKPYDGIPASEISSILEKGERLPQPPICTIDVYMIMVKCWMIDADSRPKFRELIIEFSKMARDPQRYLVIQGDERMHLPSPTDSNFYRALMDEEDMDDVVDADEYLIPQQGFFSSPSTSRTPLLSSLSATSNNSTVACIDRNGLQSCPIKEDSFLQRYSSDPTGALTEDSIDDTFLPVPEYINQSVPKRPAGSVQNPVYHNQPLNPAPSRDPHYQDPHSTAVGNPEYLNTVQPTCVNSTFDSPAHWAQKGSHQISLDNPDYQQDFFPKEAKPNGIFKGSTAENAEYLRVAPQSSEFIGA
Test: EGFR ELISA assay (in vitro kinase activity, EGFR captured from A431 cell lysate)
Format: biochemical
Design: concentration or dose not given beside the values
Source text: To provide a consistent method for measuring the in vitro kinase activity of the EGFR in an Enzyme-linked immunosorbent assay (Elisa). Scope. The following protocol describes the procedures used to analyze protein tyrosine kinase activity on the EGFR in an Elisa. The procedure also describes the protocol for the initial screening of drugs for inhibition or activation of protein tyrosine kinase activity. Reagents and Supplies. • 1. […]
Below, each entry is listed alongside its reported Biochem EGFR %Inhibition.
Output spec: scalar in %, unitless text.

Molecule: CN(C)c1ccc(C=C2C(=O)Nc3c(Br)cc(Br)cc32)cc1 [10719/A08]
Biochem EGFR %Inhibition, %: 47.3
--
Molecule: Cc1c(Br)ccc2c1C(=Cc1ccc(O)c([N+](=O)[O-])c1)C(=O)N2 [10724/C03]
Biochem EGFR %Inhibition, %: 16.5
--
Molecule: CC(C)(C)c1cc(C=C2C(=O)Nc3ccc(I)cc32)cc(Cl)c1O [10722/B08]
Biochem EGFR %Inhibition, %: 0.5

Recorded Biochem EGFR %Inhibition (molecule COc1cc(C=C2C(=O)Nc3ccc(CCCl)cc32)cc(OC)c1 [10728/G04] ): -8.2

Recorded Biochem EGFR %Inhibition (molecule O=C(O)COc1ccccc1C=C1C(=O)Nc2ccc(S(=O)(=O)Nc3ccc(C(F)(F)F)cc3)cc21 [10728/E10] ): -20.8

Recorded Biochem EGFR %Inhibition (molecule Cn1cc(Cl)c(C=C2C(=O)Nc3ccc(S(=O)(=O)Nc4ccc(C(F)(F)F)cc4)cc32)n1 [10721/E03] ): 25.1

Recorded Biochem EGFR %Inhibition (molecule CCOC(=O)CCc1c(C(=O)OCC)[nH]c(C=C2C(=O)Nc3ccc(S(=O)(=O)Nc4ccc(C(F)(F)F)cc4)cc32)c1CC(=O)OCC [10718/E05] ): -3.1

Recorded Biochem EGFR %Inhibition (molecule O=C1Nc2c(Br)cc(Br)cc2C1=Cc1ccc([N+](=O)[O-])s1 [10722/A04] ): 21.0

Recorded Biochem EGFR %Inhibition (molecule CC(=O)Oc1ccc(C=C2C(=O)Nc3ccc(S(=O)(=O)Nc4ccc(C(F)(F)F)cc4)cc32)cc1OC(C)=O [10723/E05] ): -15.6

Recorded Biochem EGFR %Inhibition (molecule COc1cc(OC)c(C=C2C(=O)Nc3c(Br)cc(Br)cc32)c(OC)c1 [10719/A06] ): 18.2

Recorded Biochem EGFR %Inhibition (molecule O=C1Nc2ccc(CCCl)cc2C1=Cc1ccc(Br)cc1 [10717/G08] ): 36.4

Recorded Biochem EGFR %Inhibition (molecule O=C1Nc2ccc(I)cc2C1=CC1C=CCCC1 (stereo not shown) [10729/B11] ): 18.8

Recorded Biochem EGFR %Inhibition (molecule Cn1cc(Cl)c(C=C2C(=O)Nc3ccc(CCCl)cc32)n1 [10721/G03] ): 23.4

Recorded Biochem EGFR %Inhibition (molecule CCOC(=O)CCc1c(C(=O)OCC)[nH]c(C=C2C(=O)Nc3ccc(CCCl)cc32)c1CC(=O)OCC [10718/G05] ): 2.8

Recorded Biochem EGFR %Inhibition (molecule CNS(=O)(=O)c1ccc2c(c1)C(=Cc1cc(Cl)cc(Br)c1O)C(=O)N2 [10727/D04] ): 39.6

Recorded Biochem EGFR %Inhibition (molecule O=C1Nc2c(Br)cc(Br)cc2C1=Cc1sccc1Br [10725/A02] ): 3.9

Recorded Biochem EGFR %Inhibition (molecule COc1c(Cl)cc(C=C2C(=O)Nc3ccc(S(=O)(=O)Nc4ccc(C(F)(F)F)cc4)cc32)cc1C(C)(C)C [10732/E09] ): -7.2

Recorded Biochem EGFR %Inhibition (molecule O=C1Nc2ccc(I)cc2C1=Cc1cccn1-c1ccc(Cl)cc1 [10724/B09] ): 8.7

Recorded Biochem EGFR %Inhibition (molecule Cc1c(Br)ccc2c1C(=Cc1ccccc1Sc1ccc(Cl)cc1)C(=O)N2 [10727/C05] ): 11.8

Recorded Biochem EGFR %Inhibition (molecule O=C1Nc2ccc(S(=O)(=O)N3CCOCC3)cc2C1=Cc1ccc(Br)cc1 [10717/F08] ): -23.4

Recorded Biochem EGFR %Inhibition (molecule COc1ccc(C=C2C(=O)Nc3ccc(S(=O)(=O)N4CCOCC4)cc32)cc1 [10726/F11] ): -16.8

Recorded Biochem EGFR %Inhibition (molecule Cc1csc2sc(C=C3C(=O)Nc4ccc(S(=O)(=O)Nc5ccc(C(F)(F)F)cc5)cc43)c(C)c12 [10724/E11] ): -26.8

Recorded Biochem EGFR %Inhibition (molecule CCc1c(C)[nH]c(C=C2C(=O)Nc3c(Br)cc(Br)cc32)c1C [10719/A05] ): 23.1

Recorded Biochem EGFR %Inhibition (molecule O=C1Nc2ccc(S(=O)(=O)Nc3ccc(C(F)(F)F)cc3)cc2C1=Cc1cc(O)c2c(c1O)CCCC2 [10726/E07] ): 20.5

---

biological target: EGFR (Homo sapiens); construct: Add 7 ug A431 cell lysate per well (EGFR source); endogenous in cells; host or cells: A431; test: EGFR ELISA assay (in vitro kinase activity, EGFR captured from A431 cell lysate); type: biochemical; parameters: concentration or dose not given beside the values
Quantity name: Biochem EGFR %Inhibition (%)
Output spec: scalar in %, unitless text.

Mol: CCOC(=O)c1c(C)[nH]c(C=C2C(=O)Nc3ccc(Br)c(C)c32)c1C
Unit spec: %
Biochem EGFR %Inhibition: -21.9
--
Mol: Cc1ccc(C=C2C(=O)Nc3ccc(S(=O)(=O)N4CCOCC4)cc32)s1
Unit spec: %
Biochem EGFR %Inhibition: -14.3
--
Mol: N#Cc1ccc(C=C2C(=O)Nc3ccc(S(=O)(=O)Nc4ccc(C(F)(F)F)cc4)cc32)cc1
Unit spec: %
Biochem EGFR %Inhibition: 15.1
--
Mol: CNS(=O)(=O)c1ccc2c(c1)C(=Cc1cc(Br)ccc1O)C(=O)N2
Unit spec: %
Biochem EGFR %Inhibition: 48.3

Entry CNS(=O)(=O)c1ccc2c(c1)C(=Cc1ccco1)C(=O)N2 under EGFR (Homo sapiens) had Biochem EGFR %Inhibition of 12.3

Entry O=C1Nc2ccc(I)cc2C1=Cc1cccc(Oc2ccccc2)c1 under EGFR (Homo sapiens) had Biochem EGFR %Inhibition of 56.9

Entry COc1c(Br)cc(C=C2C(=O)Nc3ccc(I)cc32)cc1C(C)(C)C under EGFR (Homo sapiens) had Biochem EGFR %Inhibition of 15.8

---

System: MET
Assay: MET biochemical kinase assay
Design: species or system human; concentration or dose not given beside the values
Source text: A met biochemical kinase assay may be performed for met generally as described above for other kinases by substituting that or the other kinases. […] Incorporation of phosphate into the captured receptors is detected with an anti-phosphotyrosine antibody conjugate with horse radish peroxidase using TMB as a substrate for colorimetric detection.
Quantity name: Met Kinase % Inhibition (%)
Output spec: scalar in %, unitless text.

Recorded Met Kinase % Inhibition (compound Cc1cc(C=C2C(=O)Nc3c(Br)cc(Br)cc32)ccc1O [10723/A06] ): 79.1

Recorded Met Kinase % Inhibition (compound Cc1cc(C=C2C(=O)Nc3ccc(CCCl)cc32)oc1C [10730/G11] ): 46.1

Recorded Met Kinase % Inhibition (compound O=C1Nc2ccc(CCCl)cc2C1=Cc1ccccc1 [10720/G06] ): 21.6

Recorded Met Kinase % Inhibition (compound O=C1Nc2ccc(S(=O)(=O)Nc3ccc(C(F)(F)F)cc3)cc2C1=Cc1c[nH]c(=O)[nH]c1=O [10731/E08] ): 59.0

Recorded Met Kinase % Inhibition (compound Cc1c(Br)ccc2c1C(=Cc1cccc([N+](=O)[O-])c1)C(=O)N2 [10719/C10] ): 7.9

Recorded Met Kinase % Inhibition (compound COc1c(O)ccc(C=C2C(=O)Nc3c(Br)cc(Br)cc32)c1[N+](=O)[O-] [10733/A11] ): 43.5

Recorded Met Kinase % Inhibition (compound Cc1c(Br)ccc2c1C(=Cc1ccccc1OCC(=O)O)C(=O)N2 [10728/C10] ): 28.7

Recorded Met Kinase % Inhibition (compound Cc1c(Br)ccc2c1C(=Cc1ccc(F)cc1C(F)(F)F)C(=O)N2 [10719/C11] ): -5.1

Recorded Met Kinase % Inhibition (compound COc1ccc(C=C2C(=O)Nc3ccc(CCCl)cc32)c(OC)c1 [10719/G04] ): -8.2

Recorded Met Kinase % Inhibition (compound O=CN1CCN(c2ccc(C=C3C(=O)Nc4ccc(S(=O)(=O)N5CCOCC5)cc43)cc2)CC1 [10725/F07] ): 67.8

Recorded Met Kinase % Inhibition (compound O=C1Nc2c(Br)cc(Br)cc2C1=Cc1ccc2c(c1)Cc1ccccc1-2 [10728/A06] ): 19.7

Recorded Met Kinase % Inhibition (compound CCc1ccc(C=C2C(=O)Nc3ccc(S(=O)(=O)N4CCOCC4)cc32)s1 [10726/F10] ): 51.4

Recorded Met Kinase % Inhibition (compound CNS(=O)(=O)c1ccc2c(c1)C(=Cc1ccc(OC)c(C(C)(C)C)c1)C(=O)N2 [10732/D05] ): 30.2

Recorded Met Kinase % Inhibition (compound COc1cccc(OC)c1C=C1C(=O)Nc2c(Br)cc(Br)cc21 [10728/A03] ): 29.2

Numbers sourced from patent EP1247803A2.
